- Tested System: T1, purified recombinant MHC II protein, allele DRB1*0401 (human)
- T1 construct: bought from Benaroya Research Institute; also called DR4; MHC-II DR molecule
- Assay Protocol: MHC II competition binding assay
Measured Attribute: IC50

Query block: Quick one: IC50 of DYVKAGQIIGWSGSTGY [cluster 4 wild-type (C4WT) epitope peptide] ?
Result block: < 10 nM

Query block: Repeat with DHVKAGQQIGWSGSTGY (synthetic mutated peptide of the lysostaphin catalytic domain; also called 93_99) [cluster 4 peptide with Tyr93His/Ile99Gln]
Result block: < 10 nM

Query block: Again, but for DYVEAGQIIGWSGSTGY (synthetic mutated peptide of the lysostaphin catalytic domain; also called K95E) [cluster 4 peptide with Lys95Glu]
Result block: < 10 nM
